Numbers sourced from PubChem BioAssay.

# method description: modulators of CIT2-GFP expression in yeast, confirmation, S. cerevisiae, GFP fusion, cherry picks, mother/daughter gates (AID 2274)
# details: S. cerevisiae CIT2-GFP strain, flow cytometry, 3 h; at 10 µM
Active and inactive are the calls of the source.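 How the source made its calls: active means GFP response above 150% of the DMSO level; inconclusive means fewer than 70 events counted for a yeast strain; inactive means the rest.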
Classes to choose from: active, inactive

Q: What outcome does the record of this test show for CC[n+]1c(/C=C/c2ccc(N(C)C)cc2)ccc2ccccc21 ?
A: inactive

Q: What outcome does the record of this test show for O=C(c1ccccc1F)N1CCN(c2ccccc2)CC1 ?
A: inactive

Q: What outcome does the record of this test show for O=C1c2ccsc2SCCN1Cc1ccc(Cl)cc1Cl ?
A: inactive

Q: What outcome does the record of this test show for COC(=O)c1ccc(/C=C/C(=O)c2ccc(OC)c(OC)c2)cc1 ?
A: inactive

Q: What outcome does the record of this test show for CNC(=O)/C(C#N)=C/c1c(N(Cc2ccccc2)Cc2ccccc2)nc2ccccn2c1=O ?
A: inactive

Q: What outcome does the record of this test show for C=CCn1cc(/C=C/c2cc[n+](C)cc2)c2ccccc21 ?
A: inactive

Q: What outcome does the record of this test show for CCOC(=O)C(N)CSC1CC(=O)N(c2ccc(C(=O)OC)cc2)C1=O (configuration not stated) ?
A: inactive

Q: What outcome does the record of this test show for CC1=CC(=O)C(C(C)C)=C/C1=N/OS(=O)(=O)c1ccccc1 ?
A: inactive

Q: What outcome does the record of this test show for O=C(NNC1=NCCC1)c1cccc(Br)c1 ?
A: inactive

Q: What outcome does the record of this test show for COc1ccc(S(=O)(=O)NCC(=O)N(CC(=O)NCc2ccco2)Cc2ccc(F)cc2)cc1 ?
A: inactive

Q: What outcome does the record of this test show for O=C(NC(=S)NNC(=O)c1cnccn1)c1ccc(F)cc1 ?
A: inactive

Q: What outcome does the record of this test show for O=C1C=C(c2ccccc2)C(=O)N1Nc1ccccc1 ?
A: inactive

Q: What outcome does the record of this test show for COc1cccc(NC(=O)c2ccc3c(c2)CCCC3)c1 ?
A: inactive

Q: What outcome does the record of this test show for CCCCCn1c(=O)c(C(=O)OCC)c(O)c2ccccc21 ?
A: inactive

Q: What outcome does the record of this test show for COc1ccc(C(=O)NNC(=S)NC(=O)/C=C/c2cccs2)cc1 ?
A: inactive

Q: What outcome does the record of this test show for Cc1cc(O)c(C(=O)/C=C/c2c(F)c(F)c(F)c(F)c2F)c(=O)o1 ?
A: inactive

Q: What outcome does the record of this test show for Cc1ccccc1C(=O)NNC(=S)NC(=O)c1ccc(Cl)cc1Cl ?
A: inactive

Q: What outcome does the record of this test show for COCC(=O)Nc1cc([N+](=O)[O-])ccc1C ?
A: inactive

Q: What outcome does the record of this test show for COc1ccc(OCC(O)CNC(=O)/C=C/c2cccc([N+](=O)[O-])c2)cc1 (configuration not stated) ?
A: inactive

Q: What outcome does the record of this test show for Cc1nonc1C(=O)N/N=C/c1ccc([N+](=O)[O-])o1 ?
A: inactive

Q: What outcome does the record of this test show for O=C(O)c1ccc2c3c(ncnc13)-c1ccccc1C2=O ?
A: inactive

Q: What outcome does the record of this test show for COc1ccc(N2C(=O)C(Cl)=C(N(CCO)Cc3ccccc3)C2=O)cc1 ?
A: inactive

Q: What outcome does the record of this test show for Cc1ccc(S(=O)(=O)N2CC3CCC2C3)cc1 (configuration not stated) ?
A: inactive

Q: What outcome does the record of this test show for CC(OC(=O)CSc1ccc([N+](=O)[O-])cc1)C(=O)NCc1ccccc1 (configuration not stated) ?
A: inactive

Q: What outcome does the record of this test show for Cc1c(C(=O)Nc2ccccc2)cnn1-c1ccccc1 ?
A: inactive

Q: What outcome does the record of this test show for COC(=O)c1ccc(/C=C/C(=O)c2ccc(OC)cc2)cc1 ?
A: inactive

Q: What outcome does the record of this test show for COc1ccc(N/N=C(\C#N)C(N)=O)cc1 ?
A: inactive

Q: What outcome does the record of this test show for Cc1cccc(Sc2ccc([N+](=O)[O-])cc2[N+](=O)[O-])n1 ?
A: inactive

Q: What outcome does the record of this test show for Cc1ccc(/C=c2\sc3nc(-c4cccs4)nn3c2=O)o1 ?
A: inactive

Q: What outcome does the record of this test show for O=C(O)CCC(=O)Nc1ccc(S(=O)(=O)c2ccc(NC(=O)CCC(=O)O)cc2)cc1 ?
A: inactive

Q: What outcome does the record of this test show for O=C(CCc1ccc(S(=O)(=O)N2CCOCC2)cc1)Oc1ccccc1 ?
A: inactive

Q: What outcome does the record of this test show for CC(=O)N(C1=C(Cl)C(=O)c2ccccc2C1=O)C1CCCCC1 ?
A: inactive

Q: What outcome does the record of this test show for O=C1c2cccc3c([N+](=O)[O-])ccc(c23)C(=O)N1O ?
A: active

Q: What outcome does the record of this test show for CCN(CC)Cc1csc2ccc(Br)cc12 ?
A: inactive

Q: What outcome does the record of this test show for O=[N+]([O-])c1cnc(Sc2ccncn2)s1 ?
A: inactive

Q: What outcome does the record of this test show for Cc1cccc(NC(=O)CC2SC(=O)N(c3ccccc3)C2=O)c1 (configuration not stated) ?
A: inactive

Q: What outcome does the record of this test show for CC[n+]1cc(C)ccc1/C=C/c1ccc(N(C)C)cc1 ?
A: inactive

Q: What outcome does the record of this test show for COc1cc(/C=C2\N=C(c3ccccc3)OC2=O)ccc1OC(C)=O ?
A: inactive

Q: What outcome does the record of this test show for O=C(Nc1ccccc1)c1c(F)cccc1F ?
A: inactive

Q: What outcome does the record of this test show for Cc1ccc2c(c1)c(/C=C/c1cc[n+](C)cc1)c(C)n2C ?
A: active

Q: What outcome does the record of this test show for [O-][n+]1cccc2c(Br)cc(Br)c(O)c21 ?
A: inactive

Q: What outcome does the record of this test show for CCOC(=O)c1ccc(NC(=O)CCc2nc(-c3ccc(C)cc3)no2)cc1 ?
A: inactive

Q: What outcome does the record of this test show for C/C(=N\NC(=O)c1cccc(Br)c1)c1ccccn1 ?
A: inactive

Q: What outcome does the record of this test show for O=C(Nc1ccc(S(=O)(=O)N2CCOCC2)cc1)c1ccc([N+](=O)[O-])cc1Cl ?
A: inactive

Q: What outcome does the record of this test show for COc1ccccc1C(=O)NNC(=O)C(=O)Nc1cccc(Cl)c1C ?
A: inactive

Q: What outcome does the record of this test show for CN(C(=O)c1cccnc1)c1nc(-c2ccccc2)cs1 ?
A: inactive

Q: What outcome does the record of this test show for S=C(Sc1ccc(Cl)cc1)Sc1ccc(Cl)cc1 ?
A: inactive
